FYI, the data here is from patent US11291655B2.

Tested on: Daudi Cell Culture
method_summary: Compound primary screening in Daudi cell culture
Type: cell-based
assay_conditions: Homo sapiens, 168 h; Daudi cells, 1250 cells per well, reads on Day 7
pEC50: −log10 of the molar value.
Reported pEC50 values are given for each entry in this list.

Examples with answers:
# input # query: pEC50 of entry CNCCCNS(=O)(=O)c1cc(NC(C)=O)ccc1-c1cnc(-c2ccc(NC(=S)NC(C)C)cc2)s1 [Compound D23]
# output < 5.00

# input Please answer likewise for CC(C)OC(=O)Nc1ccc(-c2ncc(-c3ccc(NC(=O)OC(C)C)cc3S(=O)(=O)NC(C)(C)C)s2)cc1 [Compound H8]
# output > 6.00

# input Please answer likewise for CC(C)OC(=O)Nc1ccc(-c2ncc(-c3ccc(CNC(=O)C(C)(C)C)cc3S(=O)(=O)NC(C)(C)C)s2)cc1 [Compound P3]
# output < 5.00

Next:
# input # query: pEC50 of entry CC(C)OC(=O)Nc1ccc(-c2ncc(-c3ccc(NS(C)(=O)=O)cc3S(=O)(=O)NC(C)(C)C)s2)cc1 [Compound H11]
# output < 5.00

# input Please answer likewise for CC(=O)Nc1ccc(-c2cnc(-c3ccc(NC(=O)NC(C)C)cc3)s2)c(S(=O)(=O)NC(C)(C)C)c1 [Compound G10]
# output > 5.00

# input Please answer likewise for CC(=O)Nc1ccc(-c2cnc(-c3ccc(NC(=S)NC(C)C)cc3)s2)c(S(=O)(=O)NCCCN(C)C)c1 [Compound D25]
# output > 6.00

# input Please answer likewise for COC(=O)[C@H](CO)NS(=O)(=O)c1cc(NC(C)=O)ccc1-c1cnc(-c2ccc(NC(=S)NC(C)C)cc2)s1 [Compound D15]
# output < 5.00

# input Please answer likewise for CC(C)NC(=S)Nc1ccc(-c2ncc(-c3ccc(NC(=O)c4ccccc4)cc3S(=O)(=O)NC(C)(C)C)s2)cc1 [Compound L6]
# output > 5.30

# input Please answer likewise for CC(C)OC(=O)Nc1ccc(-c2ncc(-c3ccc(NC(=O)OCCc4ccccc4)cc3S(=O)(=O)NC(C)(C)C)s2)cc1 [Compound B8]
# output > 6.00

# input Please answer likewise for CC(C)OC(=O)Nc1ccc(-c2ncc(-c3ccc(NC(=O)OC(C)c4ccccc4)cc3S(=O)(=O)NC(C)(C)C)s2)cc1 (centres unmarked) [Compound B15]
# output > 6.00

# input Please answer likewise for CC(=O)Nc1ccc(-c2cnc(-c3ccc(NS(=O)(=O)c4ccccc4)cc3)s2)c(S(=O)(=O)NC(C)(C)C)c1 [Compound G6]
# output > 5.00
